The entries below come with measured % Inhibition values attached.
test system: Plasmodium falciparum; experiment: Confirmatory screen in NF54 nanoGlo assay, in single point, at 2uM, 72h; format: functional, Erythrocyte; conditions: timepoint 72 hour
In all, about 4,800 compounds went through this assay and about 420 (8.8%) showed an effect of 50% or more. The sample as a whole holds a higher share of strong results than the screen did.

Molecule	% Inhibition
COc1ccc(-c2c(C)nn3c(N4CCC(C(=O)NC5CC5)CC4)cc(C)nc23)cc1OC	37%
COc1ccc(-c2nn3c(N4CCN(CC=Cc5ccccc5)CC4)cc(C)nc3c2C)cc1OC	55%
COc1ccc(-c2cc3nc(C)cc(N4CCN(C/C=C/c5ccccc5)CC4)n3n2)cc1OC	42%
CC(C)(C)c1ccc(NC(=O)c2ccnnc2)c(O)c1	-8%
CCN(C)C1(CNC(=O)c2ccc(-c3cc(F)ccc3O)cc2)CCCC1	26%
CC(C)c1cc(C(=O)N2CC3CC4CC3C2C4O)n[nH]1 (configuration not stated)	1%
CCOc1cc(N2CCOCC2)c(OCC)cc1NC(=O)c1ccc(C)c(NC(=O)c2ccco2)c1	22%
CC(C)(C)c1nc(Cn2c3c(sc2=O)CCCC3)no1	1%
COc1cccc(C2C(NC(=O)c3ccoc3)CCN2C2CC2)c1 (configuration not stated)	-10%
Cn1c(Cc2n[n+]3c(-c4ccccc4)cc(-c4ccccc4)nc3n2C)n[n+]2c(-c3ccccc3)cc(-c3ccccc3)nc12	99%
Cn1c(=O)c2c(ncn2CC(=O)N(Cc2ccccc2)C2CC2)n(C)c1=O	-4%
CNC(=O)[C@@H](NC(=O)CNC(=O)c1ccc(Cl)cc1)C(C)(C)C	-11%
Clc1cccc(CNCCCNc2ccncc2)c1Cl	71%
CCn1cc(Br)c(=O)c(NC(=O)[C@H]2CCCOC2)c1	-7%
Cc1nn(C)c(C)c1OCc1nnc(C2CCC2)n1C	-14%
OCCNCc1c(Cl)cccc1Cl	-1%
CC(C)[C@H](OC(=O)n1ccnc1)C(=O)OC(C)(C)C	-10%
COc1ccc(-c2nccn3cc(C(=O)NCCN(C)C4CCCCC4)nc23)cc1	6%
O=C(NCC1CCCCC1O)c1cnn2ccncc12 (configuration not stated)	-12%
COc1ccccc1Nc1c(-c2cccs2)nc2ccccn12	-2%
O=C(CCn1c(=O)[nH]c2ccsc2c1=O)NCc1ccccc1	37%
Cc1ccc(S(=O)(=O)Cc2nc(-c3ccc(C(=O)NCc4ccc(C)o4)cc3)oc2C)cc1	-18%

* * *

tested on: Plasmodium falciparum; experiment: Confirmatory screen in NF54 nanoGlo assay, in single point, at 2uM, 72h; type: functional, Erythrocyte; conditions: timepoint 72 hour
Out of some 4,800 compounds screened, about 420 (8.8%) showed an effect of 50% or more. The entries come from a sample that favours strong results as a whole.

Molecule	% Inhibition / %
Cc1ncc(CN(C)[C@@H](C)C(=O)Nc2ccc3c(c2)OC2(CCCCC2)O3)s1	-4
CCCN(Cc1c(C)nn(-c2ccccc2)c1N1CCN(CC)CC1)S(=O)(=O)c1ccc(C)cc1	-5
CC(C)(C)c1nc(CNc2ccc(S(=O)(=O)CCO)cc2)no1	-9
Cc1ccc(N2C(=O)C[C@]3(CC3(c3ccccc3)c3ccccc3)C2=O)cc1	66
CC1=C(C(=O)Nc2cccc(Cl)c2)[C@H](c2csnn2)NC(=O)N1	-20
CCC1CN2CCCC2CN1C(=O)Nc1nc2ccccc2s1 (configuration not stated)	-1
COc1cccc(Cn2c(=O)c3sccc3n(CC(=O)Nc3ccc4c(c3)OCO4)c2=O)c1	10
COc1ccc(CCN2C(=O)CC[C@H]2c2cn(C)c3ccccc23)cc1OC	-1
COC(=O)c1cc(Cl)c(Cl)cc1N	-6
Cc1cccc(Cn2ccc(-c3cccc(OCc4ccc(Cl)cc4Cl)c3)n2)c1	-4
Cc1nc(-c2ccc(NCc3cc4ccccc4o3)nc2)[nH]c(=O)c1C	-10
Cc1cc(C(=O)NCCCN2CCCC2=O)nn1C(F)F	-13
CN1C2(c3ccccc3)C3C(=O)N(c4ccccc4)C(=O)C3C1(c1ccccc1)C1C(=O)N(c3ccccc3)C(=O)C12 (configuration not stated)	2
COc1cc2c(cc1OC)C(Nc1cc(C)ccc1C)=NC(C)(C)C2	-7
Cc1cc(C)n2c(=O)c3ccccc3nc2c1C#N	-5
Cc1ccc(-n2nc(N3CCN(C(=O)Cc4ccc(F)cc4)CC3)ccc2=O)cc1	4
Cc1nnc(Cn2ncnc2-c2ccccc2Cl)o1	-3
Cc1ccc(Cn2c(=O)c(N3CCC[C@H](C(=O)NCc4ccccc4F)C3)nc3ccccc32)cc1	-4
CN(CC(C)(CO)CO)C(=O)c1coc2ccccc12	-3
O=c1[nH]nc(-c2ccc3ccccc3c2)c2conc12	18
CC(C)Cn1ncnc1COC(=O)c1cccnc1	-1
Cn1c(=O)c2c(-c3ccc(Cl)cc3)n(-c3cccc4cccc(N)c34)cc2n(C)c1=O	91

* * *

test system: Plasmodium falciparum; assay: Confirmatory screen in NF54 nanoGlo assay, in single point, at 2uM, 72h; format: functional, Erythrocyte; conditions: timepoint 72 hour
Out of some 4,800 compounds screened, about 420 (8.8%) showed an effect of 50% or more. What follows is part of a selection rich in strong results, with near analogues and random picks from the rest.

Molecule	% Inhibition, %
CC(C)c1cc(=O)[nH]c(-n2nc(C3CC3)cc2NC(=O)COc2ccc3ccccc3c2)n1	70
COc1cccc(NC(=O)c2ccccc2C(=O)OCCN2CCOCC2)c1	-2
CC[C@@H](CO)NC(=O)Nc1cccc(C)c1	5
Cc1cnc(NC(=O)C(=O)N2CCC[C@H](n3cccn3)C2)s1	-4
COc1ccc2c(c1)OC13CCN(C)CC1C2C(C(=O)c1ccccc1OC)C(=O)N3 (stereo not given)	57

* * *

The entries below come with measured % Inhibition values attached.
tested on: Plasmodium falciparum; assay: Confirmatory screen in NF54 nanoGlo assay, in single point, at 2uM, 72h; assay type: functional, Erythrocyte; settings: timepoint 72 hour
The whole screen tested about 4,800 compounds, of which about 420 (8.8%) showed an effect of 50% or more. This excerpt belongs to a sample that is enriched for strong results.

Chemical smiles	Quantity unit	% Inhibition
Cc1nn(C)cc1S(=O)(=O)N1CCC[C@@H]1CCc1ccccn1	%	-12
Cc1ccc(-c2nn[nH]n2)cc1-n1cccn1	%	-2
Cc1nc(Nc2ccc(F)cc2)nc2c1ncn2-c1ccc(F)cc1	%	-18
CCn1cc(C)c(C(=O)O)c1CC(=O)NCc1ccc(F)cc1	%	-12
COc1nc(N2[C@@H]3CC[C@H]2C[C@@H](OC)C3)ncc1F	%	62
Cc1ccc(Cn2ccnc2C(=O)Nc2ccccc2)cc1	%	-15
COc1ccc(Cl)cc1S(=O)(=O)N(C)[C@H]1CCc2n[nH]c(=O)n2CC1	%	-5
CCN1CCN(C2CCN(c3ncc(F)c(OC)n3)CC2)CC1	%	48
Cc1c(C(=O)c2ccc(Cl)c(Cl)c2)sc2nc3cc(F)c(F)cc3n12	%	-11
CCOC(=O)C(Nc1cccc(NC(C(=O)OCC)C(=O)OCC)c1)C(=O)OCC	%	-16
CCn1cc2c(n1)c(=O)n(Cc1ccc(C)cc1)c(=O)n2CC(=O)Nc1ccc(C)cc1C	%	-10

* * *

tested on: Plasmodium falciparum; assay: Confirmatory screen in NF54 nanoGlo assay, in single point, at 2uM, 72h; type: functional, Erythrocyte; details: timepoint 72 hour
About 420 (8.8%) of roughly 4,800 compounds showed an effect of 50% or more. Only a selection was taken, and strong results are over-represented in it overall.
Recorded endpoint: % Inhibition (%)

Compound	Quantity unit	Experimental result
COc1cc(OC)cc(C(=O)Nc2cnc(N3CCCCC3)c(C)c2)c1	%	0
COC[C@H](NCCc1cc(F)cc2c1OCOC2)C1CC1	%	63
COc1cccc(CCC(=O)N2CCN3CCC2C3)c1F (stereo unspecified)	%	-15
Cc1ccc(-c2ccnc3c(C(=O)NC4CC4)cnn23)cc1C	%	-2
CC(C)OC(=O)N(CCOC(=O)Nc1cccc(Cl)c1)CCOC(=O)Nc1cccc(Cl)c1	%	-15
Cc1nn(-c2ccccn2)c(O)c1C(c1ccccc1)c1c(C)nn(-c2ccccn2)c1O	%	90
COc1ccc(CNC(=O)N2C[C@H](C)OC3(CCCCC3)C2)cc1OC(F)F	%	-8
COc1ccc(C(=O)CN2C=CCC=C2c2nc(-c3ccc(Cl)cc3)cs2)cc1	%	72
CC1(C)Oc2ccc(S(=O)(=O)NC3CCCCC3)cc2NC1=O	%	-8
Cc1cccn(Cc2nnnn2C2CC2)c1=O	%	3
Cc1nn(C)c(C)c1-c1cc(C(=O)Nc2cc(F)ccc2F)c2c(C)nn(C)c2n1	%	-5
Cc1oc2ncn(CCN3CCCC3)c(=O)c2c1C(=O)Nc1ccc(C#N)cc1	%	34
CCc1cc(C(=O)N2CCC3(CC2)C[C@H](c2ccccc2)C(=O)N3C)no1	%	-8
COc1ccc(-c2nn(-c3ccccc3)c(O)c2C(c2ccc(C(=O)O)cc2)c2c(-c3ccc(OC)cc3)nn(-c3ccccc3)c2O)cc1	%	2
O=C(CN1C=CCC=C1c1nc(-c2ccc(Br)cc2)cs1)c1ccccc1	%	35
CC(C)(C)CCS(=O)(=O)N1CCC[C@H]1C1CCCCC1	%	0
Cc1csc(NC(=O)NCCc2cc(F)cc3c2OCOC3)n1	%	-14
CN(C(=O)Cn1cnc2nc(N3CCC(C(=O)NC4CC4)CC3)sc2c1=O)c1ccccc1	%	-14
Cc1ccc(NC(=O)Cn2cnc3nc(N(C)Cc4ccccc4)sc3c2=O)c(Br)c1	%	-14
CC[C@H]1Cn2c(C(=O)NCc3cccs3)cc3c(Cl)ccc(c32)O1	%	-4
COc1cccc(C2=NS(=O)(=O)N(C)C(C(=O)N3CCC(C(N)=O)CC3)=C2)c1	%	20
